measurementTarget: sGC α1/β1 heterodimer (Homo sapiens, UniProt Q02108+Q02153)
Construct: expressed in transfected cells; host or cells: CHO-K1 (clone #7, CHO-K1/sGC)
Sequence (Q02108 1-690): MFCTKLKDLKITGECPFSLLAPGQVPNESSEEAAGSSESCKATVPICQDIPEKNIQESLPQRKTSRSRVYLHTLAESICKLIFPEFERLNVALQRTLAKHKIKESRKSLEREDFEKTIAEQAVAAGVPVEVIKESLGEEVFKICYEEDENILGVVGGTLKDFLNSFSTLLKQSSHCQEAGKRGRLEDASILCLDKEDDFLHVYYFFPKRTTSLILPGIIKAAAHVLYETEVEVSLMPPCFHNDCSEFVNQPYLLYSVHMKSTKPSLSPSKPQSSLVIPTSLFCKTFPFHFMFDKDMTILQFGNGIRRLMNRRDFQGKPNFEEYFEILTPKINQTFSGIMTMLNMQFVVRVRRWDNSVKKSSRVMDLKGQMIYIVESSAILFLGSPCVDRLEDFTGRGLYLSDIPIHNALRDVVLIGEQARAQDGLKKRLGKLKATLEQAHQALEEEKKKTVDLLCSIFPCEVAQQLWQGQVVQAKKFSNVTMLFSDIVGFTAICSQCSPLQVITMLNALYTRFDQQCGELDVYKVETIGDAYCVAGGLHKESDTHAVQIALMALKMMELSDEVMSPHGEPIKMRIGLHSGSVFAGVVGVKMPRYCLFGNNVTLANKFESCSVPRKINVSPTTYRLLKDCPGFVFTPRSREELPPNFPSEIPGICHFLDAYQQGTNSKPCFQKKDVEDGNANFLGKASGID
Sequence (Q02153 1-619): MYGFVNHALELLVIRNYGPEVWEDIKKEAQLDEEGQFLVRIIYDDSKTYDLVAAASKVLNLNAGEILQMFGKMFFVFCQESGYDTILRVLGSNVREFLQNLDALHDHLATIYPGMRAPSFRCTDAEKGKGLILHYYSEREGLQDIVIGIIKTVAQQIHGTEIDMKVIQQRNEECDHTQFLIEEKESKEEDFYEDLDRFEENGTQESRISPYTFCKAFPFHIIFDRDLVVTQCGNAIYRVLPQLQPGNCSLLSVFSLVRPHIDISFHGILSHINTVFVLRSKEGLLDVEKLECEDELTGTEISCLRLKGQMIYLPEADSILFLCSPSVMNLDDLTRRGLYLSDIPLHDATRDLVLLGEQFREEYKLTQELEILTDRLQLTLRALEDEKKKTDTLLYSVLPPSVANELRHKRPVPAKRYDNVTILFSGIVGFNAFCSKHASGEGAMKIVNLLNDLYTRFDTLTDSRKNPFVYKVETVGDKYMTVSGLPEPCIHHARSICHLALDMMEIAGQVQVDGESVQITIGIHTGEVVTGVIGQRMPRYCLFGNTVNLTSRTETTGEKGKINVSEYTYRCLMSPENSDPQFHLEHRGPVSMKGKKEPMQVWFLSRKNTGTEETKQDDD
measurementDescription: Cell-Based sGC Functional Assay (CASA Assay), cGMP by HTRF in CHO-K1/sGC cells
conditionInfo: cGMP production, 1 hr at 37° C., 4P fit, presence or absence of 1 μM DETA-NO not given, read-out: IP (nM) (inflection point)
readoutName: EC50 (nM)

Reference set (2 entries):
compound="CCCCc1nc(-c2ncc3c(n2)NC(=O)C3(C)c2ccc(F)cn2)cn2cc(C)nc12 (centres unmarked) [Example 91B]" measurementtarget="sGC α1/β1 heterodimer (Homo sapiens, UniProt Q02108+Q02153)" unittag=nM obsvalue=330
compound="CCCc1nc(-c2nc(O)c3c(n2)NC(=O)C3(C)c2ccc(Cl)cc2)cn2ccnc12 (centres unmarked) [Example 14A]" measurementtarget="sGC α1/β1 heterodimer (Homo sapiens, UniProt Q02108+Q02153)" unittag=nM obsvalue=657

1 = CC1(c2ccc(Cl)cc2)C(=O)Nc2nc(-c3cn4ccnc4c(CCCC(F)(F)F)n3)ncc21 (centres unmarked) [Example 40A]
2 = CCCCc1nc(-c2nc(O)c3c(n2)NC(=O)C3(C)c2ccc(F)cn2)cn2ccnc12 (centres unmarked) [Example 83B]
3 = CCCc1nc(-c2nc(O)c3c(n2)NC(=O)C3(C)c2ccc(Cl)c(F)c2)cn2ccnc12 (centres unmarked) [Example 15B]
Order the records, beginning with the lowest EC50 and ending with the highest. Answer by naming the labels in the order asked.
1, 2, 3
(1: 22 nM, 2: 234 nM, 3: 702 nM)
